The entries below come with measured Binding affinity values attached.
biological target: acetylcholine receptor (Homo sapiens); assay: SPR binding affinity (RU) of optimized 5mer/6mer/7mer peptides, Examples 6-7; conditions: SPR, peptides tested at 10 μM; 6mer-1 Bottom sequence (Table 11)
Sequence (P02708 21-457): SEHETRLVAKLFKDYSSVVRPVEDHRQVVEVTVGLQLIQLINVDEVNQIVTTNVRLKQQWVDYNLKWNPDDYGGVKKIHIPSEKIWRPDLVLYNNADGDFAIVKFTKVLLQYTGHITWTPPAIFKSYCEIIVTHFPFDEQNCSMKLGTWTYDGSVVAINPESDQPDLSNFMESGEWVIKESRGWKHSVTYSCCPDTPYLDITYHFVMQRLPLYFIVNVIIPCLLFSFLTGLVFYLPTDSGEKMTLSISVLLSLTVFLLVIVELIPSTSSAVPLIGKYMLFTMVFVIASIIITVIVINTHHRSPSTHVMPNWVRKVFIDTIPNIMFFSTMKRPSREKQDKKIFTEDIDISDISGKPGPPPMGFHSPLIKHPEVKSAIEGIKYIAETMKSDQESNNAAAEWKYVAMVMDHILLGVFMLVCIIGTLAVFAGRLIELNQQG
// return numeric value only (unit: Ru, not printed)

As a guide, the following entries are already answered.
Binding affinity measured on 6mer-1-841 (KKDAPR) = 30

Binding affinity measured on 6mer-1-799 (RRKKKR) = 30

Binding affinity measured on 6mer-1-968 (RREDFR) = 39

---
Binding affinity measured on 6mer-1-870 (KRMSHR) = 25

Binding affinity measured on 6mer-1-954 (KKAKGR) = 41

Binding affinity measured on 6mer-1-809 (KKKSNR) = 12

Binding affinity measured on 6mer-1-967 (RRTEDR) = 24

Binding affinity measured on 6mer-1-957 (KKPPDK) = 43

Binding affinity measured on 6mer-1-844 (KKPMNR) = 28

Binding affinity measured on 6mer-1-861 (KRINIR) = 21

Binding affinity measured on 6mer-1-887 (KRINHR) = 30

Binding affinity measured on 6mer-1-892 (RKTEKR) = 20

Numbers sourced from patent US20250011363A1.
